target: Endothelial PAS domain-containing protein 1 (Homo sapiens) (UniProt Q99814); test: HIF-2a and HIF-1a reporter inhibition panel, dose response, selectivity assay for HIF-2a inhibitor project, cell-based, luminescence (AID 651581); settings: HIF-2a, mean of runs
Activity calls are given as the source filed them. The rule behind the calls is not given here.
Return exactly one item of active, inactive

Kindly provide the recorded test outcome for the following molecule: O=C(O)c1ccc(N/N=C/c2ccc(C(F)(F)F)cc2)cc1
active

Would you kindly repeat that for O=C(O)c1cccc(-c2nnn(Cc3ccccc3Cl)n2)c1 ?
inactive

And for COc1cc(OC)cc(-c2nnc(Nc3nc4c(F)cccc4s3)o2)c1 ?
active

Continue with Nc1ccc(-c2cc3ccccc3c(=O)o2)cc1
active

Okay, and CS(=O)(=O)c1ccc(-c2cn3cc(C(=O)O)ccc3n2)cc1 ?
inactive

Moving on to the next molecule: Cc1cc(SC#N)cc(C)c1NC(=O)CCl
inactive

Then what about the molecule COc1ccc(OCc2cccc(C(=O)Nc3cc(C)on3)c2)cc1 ?
inactive

Another molecule to check: N#Cc1c(NC(=O)CSc2ncn[nH]2)sc2c1CCCCC2
active

Please give the result for CCOc1ccc(C(=O)Nc2cccc(C(=O)O)c2C)cc1Cl too.
inactive

Again, but for CC(=O)Nc1ccc(Oc2sc(C(=O)c3ccccc3)c(N)c2C#N)cc1
inactive

Now consider O=C(O)c1cccc(N/N=C/c2cccs2)c1 .
active

Queued: Cc1ccc(-n2nc3ccc(N)cc3n2)c(C)c1
active
